- assay.notes: Metabolic stability in human liver microsomes
- Type: in vitro ADME
outcome.measure: Metabolic Stability Study H = human (µL/min/mg)
Reply with just the number (in µL/min/mg).

Here is how some molecules turned out for Metabolic Stability Study H = human.
>>> recorded_result("CC(NC(=O)Nc1ccc(S(=O)(=O)Cc2ccc3c(c2)CNC3)cc1)c1cccc(Cl)c1 (centres unmarked) [H1260]")
38.9
>>> recorded_result("COc1cc(S(=O)(=O)Cc2ccc3c(c2)CC(C)N(C)C3)ccc1NC(=O)NC(C)c1cccc(Cl)c1Cl (centres unmarked) [H1431]")
99.7

Now consider a different molecule.
For the molecule CCc1ccc(Cl)c(C(C)NC(=O)Nc2ccc(S(=O)(=O)Cc3ccc4c(c3)CNC4)cc2)c1 (centres unmarked) [H1281] , report Metabolic Stability Study H = human.
63.8

* * *

- system.name: recombinant human ghrelin receptor (HEK293/GRLN) (Homo sapiens, UniProt Q92847)
- Construct: expressed in transfected cells
- Sequence (Q92847 whole entry): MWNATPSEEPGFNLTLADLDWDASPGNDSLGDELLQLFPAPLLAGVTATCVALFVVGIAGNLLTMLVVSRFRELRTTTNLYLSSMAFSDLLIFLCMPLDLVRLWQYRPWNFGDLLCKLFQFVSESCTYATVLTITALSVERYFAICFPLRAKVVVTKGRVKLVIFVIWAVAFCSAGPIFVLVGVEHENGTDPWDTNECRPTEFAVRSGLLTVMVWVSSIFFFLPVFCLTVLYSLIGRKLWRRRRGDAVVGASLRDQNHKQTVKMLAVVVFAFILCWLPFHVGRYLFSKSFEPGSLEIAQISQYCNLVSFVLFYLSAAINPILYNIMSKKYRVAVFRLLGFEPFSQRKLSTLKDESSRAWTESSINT
- assay.notes: Ghrelin inverse agonist potency (EC50) with IP-1 (IP-One HTRF) assay
- Type: cell-based
- experimental.setup: ghrelin inverse agonist potency, IP-1 assay; read-out: Activity EC50
outcome.measure: EC50 (nM)
Form entry: value (nM) — number only.

>>> recorded_result("COc1ccc(C(C)NC(=O)Nc2ccc(S(=O)(=O)Cc3ccc4c(c3)CNC4)cc2)cc1Cl (stereo not drawn) [H1477]")
17.4
>>> recorded_result("CC(NC(=O)Nc1ccc(S(=O)(=O)Cc2ccc3c(c2)CN(C)C3)cc1-c1ncco1)c1ccccc1 (stereo not drawn)")
18.1
>>> recorded_result("COc1cc(S(=O)(=O)Cc2ccc3c(c2)CCNC3)ccc1NC(=O)N[C@@H](C)c1cccc(Cl)c1Cl")
0.4
>>> recorded_result("O=C(Nc1ccc(S(=O)(=O)Cc2ccc3c(c2)CNC3)cc1)N(O)Cc1ccccc1")
35.1
>>> recorded_result("CC(c1ccccc1)N(O)C(=O)Nc1ccc(S(=O)(=O)Cc2ccc3c(c2)CN(C)C3)cc1 (stereo not drawn) [H1471]")
3.89
>>> recorded_result("COc1cc(S(=O)(=O)Cc2ccc3c(c2)CNC3)ccc1NC(=O)N(O)C(C)c1cccc(Cl)c1Cl (stereo not drawn)")
1.2

Name the recorded EC50 of COc1cc(S(=O)(=O)Cc2ccc3c(c2)CNC3)ccc1NC(=O)N(O)C(C)c1ccccc1 (stereo not drawn) , assay system recombinant human ghrelin receptor (HEK293/GRLN) (Homo sapiens, UniProt Q92847).
6.7

* * *

- assay.notes: Metabolic stability in human liver microsomes
- Format: in vitro ADME
outcome.measure: Metabolic Stability Study H = human (µL/min/mg)
Number only, in µL/min/mg; omit the unit.

>>> recorded_result("COc1cccc(C(C)NC(=O)Nc2ccc(S(=O)(=O)Cc3ccc4c(c3)CN(C)C4)cc2)c1 (stereo not shown) [H1326]")
129.5

Return Metabolic Stability Study H = human for the following compound: CC(NC(=O)Nc1c(F)cc(S(=O)(=O)Cc2ccc3c(c2)CNC3)cc1F)c1ccccc1.O=C(O)C(F)(F)F (stereo not shown)
10

Please give the documented Metabolic Stability Study H = human of C[C@H](NC(=O)Nc1ccc(S(=O)(=O)Cc2ccc(CO)cc2)cc1)c1cccc(Cl)c1Cl
40

Give recorded Metabolic Stability Study H = human. COc1cccc(F)c1C(C)NC(=O)Nc1ccc(S(=O)(=O)Cc2ccc3c(c2)CN(C)C3)cc1 (stereo not shown)
259.9

Please give measured Metabolic Stability Study H = human of the following entry: CC(c1ccccc1)N(C)C(=O)Nc1ccc(S(=O)(=O)Cc2ccc3c(c2)CN(C)C3)cc1 (stereo not shown)
60

Could you please provide reported Metabolic Stability Study H = human for CN1Cc2ccc(CS(=O)(=O)c3ccc(NC(=O)NC(c4ccccc4)C(F)(F)F)cc3)cc2C1 (stereo not shown) ? Thanks!
99.4

Tell me its Metabolic Stability Study H = human given CC(c1cccc(Cl)c1Cl)N(O)C(=O)Nc1ccc(S(=O)(=O)Cc2ccc3c(c2)CNC3)cc1.O=C(O)C(F)(F)F (stereo not shown) as the entry.
15.9

* * *

- system.name: recombinant human ghrelin receptor (HEK293/GRLN) (Homo sapiens)
- Construct: expressed in transfected cells
- assay.notes: Ghrelin inverse agonist potency (EC50) with IP-1 (IP-One HTRF) assay
- Type: cell-based
- experimental.setup: ghrelin inverse agonist potency, IP-1 assay; read-out: Activity EC50
# if measured EC50 < 10 nM: Yes  # else: No

>>> category_label("CC(NC(=O)Nc1ccc(S(=O)(=O)Cc2ccc3c(c2)CNC3)cc1C1CC1)c1ccccc1 (stereo not drawn)")
"Yes"
>>> category_label("COc1cc(S(=O)(=O)Cc2ccc3c(c2)C(F)CNC3)ccc1NC(=O)N[C@H](C)c1cccc(Cl)c1Cl (stereo partly drawn)")
"No"

Bench note: check whether CNC(=O)c1cc(NC(=O)NC(C)c2ccccc2)ccc1S(=O)(=O)Cc1ccc2c(c1)CNC2 (stereo not drawn) shows EC50 below 10 nM
No

Determine whether this molecule shows EC50 lower than 10 nM (ties excluded): CC(c1ccccc1)n1c(=O)[nH]c2ccc(S(=O)(=O)Cc3ccc4c(c3)CN(C)C4)cc2c1=O (stereo not drawn)
No

Quick check: does COc1cc(S(=O)(=O)Cc2ccc3c(c2)CCNC3)ccc1NC(=O)N[C@H](C)c1cccc(Cl)c1Cl have EC50 under 10 nM?
Yes

* * *

Each entry below carries its reported EC50.
- system.name: recombinant human ghrelin receptor (HEK293/GRLN) (Homo sapiens, UniProt Q92847)
- Construct: expressed in transfected cells
- assay.notes: Ghrelin inverse agonist potency (EC50) with IP-1 (IP-One HTRF) assay
- Assay type: cell-based
- experimental.setup: IP-1 assay, HEK293/GRLN; read-out: Activity EC50 (ghrelin inverse agonist potency)
# number only, unit nM dropped from output

# example entries with known answers
>>> recorded_result("CC(NC(=O)Nc1ccc(S(=O)(=O)Cc2ccc3c(c2)CNC3)cc1F)c1ccccc1F.Cl (stereo not drawn)")
15.1
>>> recorded_result("CC(NC(=O)Nc1ccc(S(=O)(=O)Cc2ccc3c(c2)CN(C)C3)cc1)c1c(F)cccc1F (stereo not drawn)")
7.31

Dear colleague, please send me the reported EC50 for CC(NC(=O)Nc1ccc(S(=O)(=O)Cc2ccc3c(c2)CNC3)cc1F)c1ccccc1 (stereo not drawn) when you can.
11.6

* * *

- assay.notes: Animal PK study in mouse via i.v., p.o. and s.c. administration
- Format: in vivo
- experimental.setup: p.o.
Assign Yes to entries whose PK t1/2po meets or exceeds 2 h; assign No to the rest.

Solved entries:
>>> category_label("COc1ccc([C@H](C)NC(=O)Nc2ccc(S(=O)(=O)Cc3ccc4c(c3)CCN(C(C)=O)C4)cc2)c(Cl)c1Cl [H1025]")
"No"
>>> category_label("C[C@H](NC(=O)Nc1ccc(S(=O)(=O)Cc2ccc(CC(C)(C)N)cc2)cc1)c1cccc(Cl)c1Cl [H0969]")
"Yes"
>>> category_label("C[C@H](NC(=O)Nc1ccc(S(=O)(=O)Nc2ccc(CC(C)(C)N(C)C)cc2)cc1)c1cccc(Cl)c1Cl [H0967]")
"Yes"
>>> category_label("C[C@H](NC(=O)Nc1ccc(S(=O)(=O)Cc2ccc(CC(C)(C)N(C)C)cc2)cc1)c1cccc(Cl)c1Cl [H1010]")
"No"
>>> category_label("C[C@H](NC(=O)Nc1ccc(S(=O)(=O)Nc2ccc3c(c2)CCNC3)cc1)c1cccc(Cl)c1Cl.Cl [H1004]")
"No"

Check the entry COc1ccc([C@H](C)NC(=O)Nc2ccc(S(=O)(=O)Nc3ccc4c(c3)CCNC4)cc2)c(Cl)c1Cl.Cl [H1005] : does PK t1/2po equal or exceed 2 h?
Yes

Entry C[C@H](NC(=O)Nc1ccc(S(=O)(=O)Cc2ccc3c(c2)CCN(C)C3)cc1)c1cccc(Cl)c1Cl [H1071] : is its PK t1/2po no less than 2 h?
No

* * *

- assay.notes: Animal PK study in mouse via i.v., p.o. and s.c. administration
- Type: in vivo
- experimental.setup: i.v.
outcome.measure: PK Vdiv (L/kg)
Provide the reading as a plain figure in L/kg.

# example entries with known answers
>>> recorded_result("CC(NC(=O)Nc1ccc(S(=O)(=O)Cc2ccc3c(c2)CNC3)cc1)c1cccc2ccccc12.Cl (centres unmarked) [H1149]")
1.22
>>> recorded_result("C[C@H](NC(=O)Nc1ccc(S(=O)(=O)Cc2ccc(CO)cc2)cc1)c1cccc(Cl)c1Cl [H1060]")
8.25
>>> recorded_result("COc1ccc([C@H](C)NC(=O)Nc2ccc(S(=O)(=O)Nc3ccc4c(c3)CCNC4)cc2)c(Cl)c1Cl.Cl [H1005]")
1.46
>>> recorded_result("C[C@H](NC(=O)Nc1ccc(S(=O)(=O)Nc2ccc3c(c2)CCNC3)cc1)c1cccc(Cl)c1Cl.Cl [H1004]")
37.7

Note PK Vdiv for the compound shown: C[C@H](NC(=O)Nc1ccc(S(=O)(=O)Cc2ccc(CC(C)(C)N)cc2)cc1)c1cccc(Cl)c1Cl [H0969]
1.97
